Listing: PBM E-score of selected sequences
Tested on: Caupolican (Caup) homeodomain DNA-binding domain
Sequence: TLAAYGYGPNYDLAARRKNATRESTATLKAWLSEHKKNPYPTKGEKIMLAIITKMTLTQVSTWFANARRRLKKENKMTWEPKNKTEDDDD
measurementNotes: PBM E-score (8-mer, recovered from the published 9-mer minima) (E-score (dimensionless, -0.5 to 0.5)); higher = stronger relative binding preference, active = 0.31 or more
Many of the other results were omitted from the sample, so hits are more common in it than they were. How many sequences the whole screen found active is unknown.
reportedProperty: PBM E-score

INSERT INTO results (sequencecontent, measuredon, reportedproperty, val) VALUES
  ('AACTACAC', 'Caupolican (Caup) homeodomain DNA-binding domain', 'PBM E-score', 0.355),
  ('AACTACGT', 'Caupolican (Caup) homeodomain DNA-binding domain', 'PBM E-score', 0.151),
  ('AGGGTTGG', 'Caupolican (Caup) homeodomain DNA-binding domain', 'PBM E-score', -0.0294),
  ('AACTACCT', 'Caupolican (Caup) homeodomain DNA-binding domain', 'PBM E-score', 0.122),
  ('GGGTACTA', 'Caupolican (Caup) homeodomain DNA-binding domain', 'PBM E-score', 0.152),
  ('ACTTACAC', 'Caupolican (Caup) homeodomain DNA-binding domain', 'PBM E-score', 0.245),
  ('GCACACCC', 'Caupolican (Caup) homeodomain DNA-binding domain', 'PBM E-score', -0.143),
  ('ACCCGGGC', 'Caupolican (Caup) homeodomain DNA-binding domain', 'PBM E-score', -0.196),
  ('CCCACTAG', 'Caupolican (Caup) homeodomain DNA-binding domain', 'PBM E-score', -0.195),
  ('GACTACAA', 'Caupolican (Caup) homeodomain DNA-binding domain', 'PBM E-score', 0.222),
  ('GATCGGCA', 'Caupolican (Caup) homeodomain DNA-binding domain', 'PBM E-score', -0.0784),
  ('CGTTACAA', 'Caupolican (Caup) homeodomain DNA-binding domain', 'PBM E-score', 0.289),
  ('TGTTACAA', 'Caupolican (Caup) homeodomain DNA-binding domain', 'PBM E-score', 0.42),
  ('CTGTACTA', 'Caupolican (Caup) homeodomain DNA-binding domain', 'PBM E-score', 0.156),
  ('GACTACAC', 'Caupolican (Caup) homeodomain DNA-binding domain', 'PBM E-score', 0.33),
  ('CACTACAC', 'Caupolican (Caup) homeodomain DNA-binding domain', 'PBM E-score', 0.206),
  ('ACGCAACA', 'Caupolican (Caup) homeodomain DNA-binding domain', 'PBM E-score', 0.215),
  ('AGTTACAC', 'Caupolican (Caup) homeodomain DNA-binding domain', 'PBM E-score', 0.303),
  ('GCAAGTCC', 'Caupolican (Caup) homeodomain DNA-binding domain', 'PBM E-score', -0.0418),
  ('AACTACAA', 'Caupolican (Caup) homeodomain DNA-binding domain', 'PBM E-score', 0.342),
  ('CTATTAAC', 'Caupolican (Caup) homeodomain DNA-binding domain', 'PBM E-score', 0.178),
  ('ATAGGGGA', 'Caupolican (Caup) homeodomain DNA-binding domain', 'PBM E-score', -0.137);

###

Tested on: Caupolican (Caup) homeodomain DNA-binding domain
Sequence: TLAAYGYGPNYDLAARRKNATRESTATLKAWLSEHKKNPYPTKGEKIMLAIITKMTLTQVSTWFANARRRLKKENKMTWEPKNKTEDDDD
measurementNotes: PBM E-score (8-mer, recovered from the published 9-mer minima) (E-score (dimensionless, -0.5 to 0.5)); Drosophila protein; higher = stronger relative binding preference, active = 0.31 or more
Many of the other results were omitted from the sample, so hits are more common in it than they were. The true hit rate is not given.
Outcome codes: YES = active, NO = inactive

INSERT INTO measurements (sequencecontent, classlabel) VALUES
  ('GTTACAAA', 'NO'),
  ('AGACCCGA', 'NO'),
  ('GGGTACAA', 'NO'),
  ('AATACACT', 'NO'),
  ('TGGTACAA', 'YES'),
  ('AGGTACAT', 'YES'),
  ('CTTACACA', 'NO'),
  ('GGATCCCA', 'NO'),
  ('ATTGGGAG', 'NO'),
  ('TAATACAA', 'NO'),
  ('CATCTAGG', 'NO'),
  ('CATACACG', 'YES'),
  ('AACAAAAT', 'NO'),
  ('ACGGCTTG', 'NO'),
  ('ATTACACA', 'YES'),
  ('CATACACA', 'NO'),
  ('CATACACC', 'NO'),
  ('GATACACA', 'NO'),
  ('AATACACG', 'YES'),
  ('AATACACC', 'NO'),
  ('ATTACTCA', 'NO'),
  ('AGAAGAGG', 'NO');
